Target: T1, human IL-12 (human, UniProt P29459 23-219; P29460 23-328)
T1 construct: recombinant human IL-12 heterodimer (p35/p40, disulfide-linked); also called hIL-12; rhIL-12
T1 sequence (looked up) 1: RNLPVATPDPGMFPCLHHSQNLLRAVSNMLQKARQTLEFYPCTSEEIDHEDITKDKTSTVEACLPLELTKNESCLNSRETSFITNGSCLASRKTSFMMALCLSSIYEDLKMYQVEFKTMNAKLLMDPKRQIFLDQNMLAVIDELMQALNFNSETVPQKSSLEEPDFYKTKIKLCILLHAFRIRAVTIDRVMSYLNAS
T1 sequence (looked up) 2: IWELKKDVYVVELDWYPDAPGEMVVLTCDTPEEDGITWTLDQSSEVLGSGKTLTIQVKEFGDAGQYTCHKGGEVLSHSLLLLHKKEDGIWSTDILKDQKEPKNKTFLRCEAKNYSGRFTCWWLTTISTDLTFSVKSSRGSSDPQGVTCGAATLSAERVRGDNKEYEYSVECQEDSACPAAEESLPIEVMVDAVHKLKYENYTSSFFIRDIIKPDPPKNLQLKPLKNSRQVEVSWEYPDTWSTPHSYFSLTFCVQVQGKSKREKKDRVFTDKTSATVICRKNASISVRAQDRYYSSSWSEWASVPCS
Assay: SPR (BIAcore), IL-12 chip
Quick rule: koff of at least 0.003 s⁻¹ means Condition met, below that means Condition not met.

Q. Would you say 31-A6 (scFv, V domains shown, scFv) VH: QVQLVQSGGGVVQPGRSLRLSCAASGFTFSSYGMHWVRQAPGKGLEWVAFIRYDGSNKYYADSVKGRFTISRDNSKNTLYLQMKSLRAEDTAVYYCKTHGSHDNWGQGTMVTVSS VL: SYVLTQPPSVSGTPGQRVTISCSGGRSNIGSNTVKWYQQLPGTAPKLLIYGNDQRPSGVPDRFSGSKSGTSASLAITGVQAEDEADYYCQSYDRGTHPNLNFGTGTKVTVL shows koff at minimum 0.003 s⁻¹?
A. Condition not met

Q. Would you say M2 B4 (scFv, V domains shown, scFv) VH: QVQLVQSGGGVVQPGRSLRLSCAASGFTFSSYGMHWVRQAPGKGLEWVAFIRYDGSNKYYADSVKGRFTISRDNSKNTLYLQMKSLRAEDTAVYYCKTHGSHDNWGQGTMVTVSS VL: SYVLTQPPSVSGTPGQRVTISCSGGRSNIGSNTVKWYQQLPGTAPKLLIYGNDQRPSGVPDRFSGSKSGTSASLAITGVQAEDEADYYCQSYDIGLTGSRVFGTGTKVTVL shows koff at minimum 0.003 s⁻¹?
A. Condition met

Q. Would you say B8 (scFv, V domains shown, scFv) VH: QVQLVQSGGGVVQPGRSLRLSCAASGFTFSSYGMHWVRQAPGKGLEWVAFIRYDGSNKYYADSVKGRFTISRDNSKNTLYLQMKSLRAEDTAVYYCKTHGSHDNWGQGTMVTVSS VL: SYVLTQPPSVSGTPGQRVTISCSGGRSNIGSNTVKWYQQLPGTAPKLLIYGNDQRPSGVPDRFSGSKSGTSASLAITGVQAEDEADYYCQSYDRGHTAHLYFGTGTKVTVL shows koff at minimum 0.003 s⁻¹?
A. Condition not met

Q. Would you say 43-G3 (scFv, V domains shown, scFv) VH: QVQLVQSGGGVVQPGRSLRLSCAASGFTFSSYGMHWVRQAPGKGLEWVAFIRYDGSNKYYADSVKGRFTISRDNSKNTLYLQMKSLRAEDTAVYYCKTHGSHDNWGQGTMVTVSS VL: SYVLTQPPSVSGTPGQRVTISCSGGRSNIGSNTVKWYQQLPGTAPKLLIYGNDQRPSGVPDRFSGSKSGTSASLAITGVQAEDEADYYCQSYDRGIWPNLNFGTGTKVTVL shows koff at minimum 0.003 s⁻¹?
A. Condition not met
